Test system: FdsR/P_H16_RS03165 formate biosensor (pEH134)
Experiment: relative induction of RFP reporter vs primary effector (background-corrected); higher = stronger activation of the biosensor;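 note: RFP excited at 585 nm with emission read at 620 nm, culture medium blanks subtracted from fluorescence and absorbance prior to normalisation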
Conditions: inducer concentration 5 mM; 6 h; Cupriavidus necator H16; minimal medium + 0.4% gluconate
Parameter relative induction of RFP reporter: see the listing below.
endpoint_label: relative induction of RFP reporter (%)

molecule	tested_on	endpoint_label	measurement
NC(C(=O)O)c1ccccc1 (racemic)	FdsR/P_H16_RS03165 formate biosensor (pEH134)	relative induction of RFP reporter	5.96
C[C@H](N)C(=O)O	FdsR/P_H16_RS03165 formate biosensor (pEH134)	relative induction of RFP reporter	-2.12
CCCC(=O)O	FdsR/P_H16_RS03165 formate biosensor (pEH134)	relative induction of RFP reporter	-1.59
NCCc1ccc(O)c(O)c1	FdsR/P_H16_RS03165 formate biosensor (pEH134)	relative induction of RFP reporter	2.79
O=C(O)c1c(O)cccc1O [2,6-dihydroxybenzoate]	FdsR/P_H16_RS03165 formate biosensor (pEH134)	relative induction of RFP reporter	-4.96
O=C(O)c1ccc(O)cc1 [4-hydroxybenzoate]	FdsR/P_H16_RS03165 formate biosensor (pEH134)	relative induction of RFP reporter	1.94
C[C@H](O)C(=O)O [L-lactate]	FdsR/P_H16_RS03165 formate biosensor (pEH134)	relative induction of RFP reporter	1.58

====

Tested on: AcoR/P_H16_RS19445 acetoin biosensor (pEH052)
Test: relative induction of RFP reporter vs primary effector (background-corrected); higher = stronger activation of the biosensor
Details: inducer concentration 5 mM; 6 h; Cupriavidus necator H16; minimal medium + 0.4% gluconate
Below, each entry is listed with its recorded relative induction of RFP reporter.

molecule	tested_on	relative induction of RFP reporter
O=C(O)CCC(=O)O [succinate]	AcoR/P_H16_RS19445 acetoin biosensor (pEH052)	-1.14%
NCC(O)C(=O)O (stereo unspecified) [3-amino-2-hydroxypropanoate]	AcoR/P_H16_RS19445 acetoin biosensor (pEH052)	-0.589%
CC(=O)CCC(=O)O [levulinic acid]	AcoR/P_H16_RS19445 acetoin biosensor (pEH052)	-2.12%
O=C(O)C1=CCCCC1 [cyclohexene-1-carboxylate]	AcoR/P_H16_RS19445 acetoin biosensor (pEH052)	2.55%
O=C(O)CNC(=O)c1ccccc1 [N-benzoylglycine]	AcoR/P_H16_RS19445 acetoin biosensor (pEH052)	-2.37%
O=C(O)c1cc(=O)c2ccccc2[nH]1 [kynurenate]	AcoR/P_H16_RS19445 acetoin biosensor (pEH052)	-1.75%

====

Test system: BenM/P_H16_RS09790 benzoate biosensor (pEH148)
Experiment: relative induction of RFP reporter vs primary effector (background-corrected); higher = stronger activation of the biosensor
Settings: inducer concentration 5 mM; 6 h; Cupriavidus necator H16; minimal medium + 0.4% gluconate

compound	relative induction of RFP reporter
O=C(O)c1c(O)cccc1O [2,6-dihydroxybenzoate]	0.0383%
O=C(O)c1ccc(O)cc1 [4-hydroxybenzoate]	-0.00462%
NCCS(=O)(=O)O [taurine]	-0.0223%
O=S(=O)(O)CCO [isethionate]	-0.0202%
O=C(O)c1cc(=O)c2ccccc2[nH]1 [kynurenate]	-0.0535%
N[C@@H](Cc1c[nH]c2ccccc12)C(=O)O [L-tryptophan]	-0.0226%
O=c1cc[nH]c(=O)[nH]1 [uracil]	-0.0102%
C[C@H](N)C(=O)O [L-alanine]	-0.053%
C[C@H](O)C(=O)O [L-lactate]	-0.0365%
O=C(O)C1CCCC1 [cyclopentane-1-carboxylate]	0.298%
C[C@@H](O)C(=O)O [D-lactate]	-0.0413%
CCC(=O)O [propanoate]	-0.0373%
Cn1cnc2c1c(=O)[nH]c(=O)n2C [theobromine]	0.0104%
CC(=O)CCC(=O)O [levulinic acid]	-0.0388%
O=C(O)c1cccnc1 [nicotinate]	1.95%
Cn1c(=O)c2c(ncn2C)n(C)c1=O [caffeine]	0.0418%
O=C(O)/C=C\C=C/C(=O)O [cis,cis-muconate]	-0.00774%
O=C(O)C1=C[C@@H](O)[C@@H](O)[C@H](O)C1 [shikimate]	-0.000316%
O=C(O)C1=CCCCC1 [cyclohexene-1-carboxylate]	156%
NCCc1ccc(O)c(O)c1 [dopamine]	0.0224%
OC[C@@H](O)[C@@H](O)[C@H](O)[C@H](O)CO [D-mannitol]	0.00493%
O=C(O)C(O)c1ccccc1 (centres undefined) [mandelic acid]	0.175%
O=C(O)/C=C/C(=O)O [fumarate]	0.214%
Oc1ccc(O)cc1 [hydroquinone]	0.0575%
O=C(O)C[C@H](O)C(=O)O [L-malate]	-0.00804%
Oc1ccccc1O [catechol]	9.72%
O=C(O)CC(=O)C(=O)O [oxaloacetate]	-0.0305%
Oc1ccccc1 [phenol]	-0.0189%
O=C(O)CCC(=O)O [succinate]	-0.0349%

====

relative induction of RFP reporter by entry:
Tested on: GabR/P_H16_RS23655 GABA biosensor (pEH256)
Assay: relative induction of RFP reporter vs primary effector (background-corrected); higher = stronger activation of the biosensor
Details: inducer concentration 5 mM; 6 h; Cupriavidus necator H16; minimal medium + 0.4% gluconate

compound	relative induction of RFP reporter (%)
NC(=O)CC[C@H](N)C(=O)O	-2.05
O=C(O)C[C@H](O)C(=O)O [L-malate]	-2.18
O=C(O)[C@@H](O)[C@@H](O)[C@H](O)[C@@H](O)C(=O)O [glucarate]	0.559
Oc1ccccc1O	3.82
O=C(O)c1c(O)cccc1O [2,6-dihydroxybenzoate]	1.87
NCC(O)C(=O)O (stereo unspecified) [3-amino-2-hydroxypropanoate]	-1.08
C[C@@H](O)C(=O)O [D-lactate]	-2.02
O=C(O)c1ccc(O)cc1 [4-hydroxybenzoate]	-0.622
Oc1ccccc1	-2.32
N[C@@H](Cc1c[nH]c2ccccc12)C(=O)O	-1.31
O=C(O)C(O)c1ccccc1 (stereo unspecified)	1.32

====

System: OapR/P_H16_RS01330 beta-alanine biosensor (pEH147)
Assay: relative induction of RFP reporter vs primary effector (background-corrected); higher = stronger activation of the biosensor
Conditions: inducer concentration 5 mM; 6 h; Cupriavidus necator H16; minimal medium + 0.4% gluconate
endpoint_label: relative induction of RFP reporter (%)

compound	measurement
Oc1ccccc1O	-1.89
O=C(O)C(O)C(=O)O	0.0759
Cn1cnc2c1c(=O)[nH]c(=O)n2C	0.977
O=C(O)c1cccnc1 [nicotinate]	-0.669
O=C(O)c1ccc(O)cc1 [4-hydroxybenzoate]	-0.798
NC(=O)CC[C@H](N)C(=O)O	-0.494
O=C(O)CC(CC(=O)O)C(=O)O [tricarballylate]	-1.38
O=c1[nH]cnc2nc[nH]c12	1.08
O=C(O)C[C@H](O)C(=O)O [L-malate]	0.168
O=C(O)/C=C/C(=O)O [fumarate]	0.456
C[C@@H](O)C(=O)O [D-lactate]	-0.533
C[C@H](O)C(=O)O [L-lactate]	-0.633
NCC(=O)O	-0.454

====

System: HpdA/P_H16_RS24175 L-tyrosine biosensor (pEH158)
Experiment: relative induction of RFP reporter vs primary effector (background-corrected); higher = stronger activation of the biosensor
Settings: inducer concentration 5 mM; 6 h; Cupriavidus necator H16; minimal medium + 0.4% gluconate

molecule	quantity_unit	relative induction of RFP reporter
CCC(=O)O [propanoate]	%	-0.0944
O=C(O)C(O)C(=O)O	%	-0.0907
O=c1[nH]cnc2nc[nH]c12	%	-0.0963
O=C(O)/C=C\C=C/C(=O)O [cis,cis-muconate]	%	0.00769
O=C(O)[C@@H](O)[C@@H](O)[C@H](O)[C@@H](O)C(=O)O [glucarate]	%	-0.0077
CCCC(=O)O	%	-0.166

====

Entries annotated with measured relative induction of RFP reporter
Tested on: PcaQ/P_H16_RS30145 3,4-dihydroxybenzoate biosensor (pEH161)
Assay: relative induction of RFP reporter vs primary effector (background-corrected); higher = stronger activation of the biosensor
Settings: inducer concentration 5 mM; 6 h; Cupriavidus necator H16; minimal medium + 0.4% gluconate

compound	relative induction of RFP reporter, %
Oc1ccccc1O	0.794
O=CC(=O)O [glyoxylate]	0.0806
O=C(O)/C=C\C=C/C(=O)O [cis,cis-muconate]	-0.0137
O=C(O)c1cccnc1 [nicotinate]	-0.0619
Oc1cccc(O)c1	-0.109
O=C(O)c1ccc(O)cc1 [4-hydroxybenzoate]	212
CCCC(=O)O	0.636
C[C@H](O)C(=O)O [L-lactate]	-0.0469
N[C@@H](CC(=O)O)C(=O)O [L-aspartate]	-0.0549
O=C(O)c1c(O)cccc1O [2,6-dihydroxybenzoate]	0.0449

Origin of the recorded values: the supplement of paper PMC7057948
